# CHI Log D annotations
- Assay Overview: CHI Log D procedure
- Assay type: physicochemical
- Experimental Context: pH 7.4

CC(=O)N1CCC[C@]12CC=CCCCC1(CCCC=CCCCOC(=O)N3CC[C@@](C(=O)N[C@@H](Cc4ccccc4)C(=O)N[C@@H](Cc4csc5ccccc45)C(=O)N[C@@H](Cc4c[nH]cn4)C(N)=O)(C3)NC(=O)[C@H](CC(N)=O)NC(=O)[C@H](Cc3ccccc3)NC(=O)[C@H](C)NC(=O)[C@H](C)NC(=O)[C@H](CCC(=O)O)NC(=O)[C@H](CC(=O)O)NC1=O)NC(=O)[C@H](CC(C)(C)C)NC(=O)[C@H](CC(=O)O)NC2=O (some centres unmarked) [I-692]; 2.12

Now consider a different compound.
In: # input compound: CC(=O)N1CCC[C@]12CC=CCCCC1(CCCC=CCCCCCC[C@@](C)(C(=O)N[C@@H](Cc3ccccc3)C(=O)N[C@@H](Cc3c[nH]c4ccccc34)C(=O)N[C@@H](C)C(N)=O)NC(=O)[C@H](C)NC(=O)[C@H](Cc3ccccc3)NC(=O)[C@H](C)NC(=O)[C@H](C)NC(=O)[C@H](CCC(=O)O)NC(=O)[C@H](CC(=O)O)NC1=O)NC(=O)[C@H](C)NC(=O)[C@H](CC(=O)O)NC2=O (some centres unmarked) [I-187] ; wanted: its CHI Log D
Out: 2.083

---

- Target Desc: full-length beta-Catenin (Uniprot ID P35222) (Homo sapiens)
- Construct: 10 nM full-length beta-Catenin (Uniprot ID P35222)
- Sequence (P35222 whole entry): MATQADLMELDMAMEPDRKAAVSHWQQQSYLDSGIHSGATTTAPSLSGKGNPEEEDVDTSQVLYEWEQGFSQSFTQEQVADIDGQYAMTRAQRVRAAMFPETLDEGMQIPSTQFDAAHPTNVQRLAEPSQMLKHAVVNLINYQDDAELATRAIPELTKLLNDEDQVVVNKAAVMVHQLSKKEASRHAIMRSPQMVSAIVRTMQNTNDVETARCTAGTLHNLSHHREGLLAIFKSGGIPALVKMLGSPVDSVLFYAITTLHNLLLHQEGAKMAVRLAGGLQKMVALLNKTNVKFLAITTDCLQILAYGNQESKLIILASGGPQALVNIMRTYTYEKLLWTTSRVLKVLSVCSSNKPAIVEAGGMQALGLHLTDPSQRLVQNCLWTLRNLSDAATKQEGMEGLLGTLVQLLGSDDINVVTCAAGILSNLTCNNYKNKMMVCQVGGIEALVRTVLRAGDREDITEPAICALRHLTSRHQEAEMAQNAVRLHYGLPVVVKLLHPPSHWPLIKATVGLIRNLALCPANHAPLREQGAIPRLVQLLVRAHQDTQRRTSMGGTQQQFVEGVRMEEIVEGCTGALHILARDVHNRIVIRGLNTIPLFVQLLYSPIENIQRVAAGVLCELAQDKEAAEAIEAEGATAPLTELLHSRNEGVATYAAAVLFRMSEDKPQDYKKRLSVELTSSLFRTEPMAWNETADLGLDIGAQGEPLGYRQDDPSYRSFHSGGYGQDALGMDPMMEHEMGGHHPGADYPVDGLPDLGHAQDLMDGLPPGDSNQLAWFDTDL
- Assay Overview: Fluorescence polarization IC50 (beta-catenin / 5FAM-TCF4 10-53 competition)
- Format: binding
- Experimental Context: fluorescence polarization; read-out: beta-Catenin FP IC50
# IC50 annotations
Write the numeric value and follow it with the unit.

CC(=O)N1CCC[C@]12CC=CCCCC1(CCCC=CCCCOC(=O)N3CC[C@@](C(=O)N[C@@H](Cc4ccsc4)C(=O)N[C@@H](Cc4csc5ccccc45)C(=O)N[C@@H](CO)C(N)=O)(C3)NC(=O)[C@H]([C@@H](C)O)NC(=O)[C@H](Cc3ccccc3)NC(=O)[C@H](C)NC(=O)[C@H](C)NC(=O)[C@H]([C@@H](C)O)NC(=O)[C@H](CC(=O)O)NC1=O)NC(=O)[C@H](CC(C)(C)C)NC(=O)[C@H](CC(=O)O)NC2=O (some centres unmarked); 15 nM

Now consider a different molecule.
In: # input molecule: CC(=O)N1CCC[C@]12CC=CCCCC1(CCCC=CCCCOC(=O)N3CC[C@@](C(=O)N[C@@H](Cc4ccccc4Cl)C(=O)N[C@@H](Cc4csc5ccccc45)C(=O)N[C@H](C(N)=O)[C@@H](C)O)(C3)NC(=O)[C@H](CC(C)C)NC(=O)[C@H](Cc3ccccc3)NC(=O)[C@H](C)NC(=O)[C@H](CCCCNC(C)C)NC(=O)[C@H](CC(=O)O)NC(=O)[C@H](CC(=O)O)NC1=O)NC(=O)[C@H](CC(C)(C)C)NC(=O)[C@H](CC(=O)O)NC2=O (some centres unmarked) ; wanted: its IC50
Out: 10 nM

---

# CHI Log D annotations
- Assay Overview: CHI Log D procedure
- Assay type: physicochemical
- Experimental Context: pH 7.4
Keep the answer to the number alone.

Example results:
CC[C@H](C)[C@@H]1NC(=O)[C@H](CC(=O)O)NC(=O)[C@]2(CC=CCCCC3(CCCC=CCCCCCC[C@@](C)(C(=O)N[C@@H](Cc4ccsc4)C(=O)N[C@@H](Cc4csc5ccccc45)C(=O)N[C@@H](Cc4c[nH]cn4)C(N)=O)NC(=O)[C@H](CC(N)=O)NC(=O)[C@H](Cc4ccccc4)NC(=O)[C@H](C)NC(=O)[C@H](C)NC(=O)[C@H](CC(=O)O)NC(=O)[C@H](CC(=O)O)NC3=O)NC1=O)CCCN2C(C)=O (stereo partly shown) [I-555]; 2.374
CC(=O)N1CCC[C@]12CC=CCCCC1(CCCC=CCCCCCC[C@@](C)(C(=O)N[C@@H](Cc3ccc(C(N)=O)cc3)C(=O)N[C@@H](Cc3csc4ccccc34)C(=O)N[C@@H](CCC(N)=O)C(N)=O)NC(=O)[C@H](C(C)C)NC(=O)[C@H](Cc3ccccc3)NC(=O)[C@H](C)NC(=O)[C@H](C)NC(=O)[C@H](CC(=O)O)NC(=O)[C@H](CC(=O)O)NC1=O)NC(=O)[C@H](C)NC(=O)[C@H](CC(=O)O)NC2=O (stereo partly shown) [I-337]; 1.579
CC(=O)N1CCC[C@]12CC=CCCCC1(CCCC=CCCCCCC[C@@](C)(C(=O)N[C@@H](Cc3ccccc3Cl)C(=O)N[C@@H](Cc3csc4ccccc34)C(=O)N[C@@H](C(N)=O)[C@H](C)O)NC(=O)[C@H]([C@@H](C)O)NC(=O)[C@H](Cc3ccccc3)NC(=O)[C@H](C)NC(=O)[C@H](C)NC(=O)[C@H](CCC(=O)O)NC(=O)[C@H](CC(=O)O)NC1=O)NC(=O)[C@H](CC(C)(C)C)NC(=O)[C@H](CC(=O)O)NC2=O (stereo partly shown) [I-1094]; 3.271
CC(=O)N1CCC[C@]12CC=CCCCC1(CCCC=CCCCCCC[C@@](C)(C(=O)N[C@@H](Cc3ccccc3)C(=O)N[C@@H](Cc3csc4ccccc34)C(=O)N[C@@H](CCC(N)=O)C(N)=O)NC(=O)[C@H](CC(N)=O)NC(=O)[C@H](Cc3ccccc3)NC(=O)[C@H](C)NC(=O)[C@H](C)NC(=O)[C@H](CCC(=O)O)NC(=O)[C@H](CC(=O)O)NC1=O)NC(=O)[C@H](C)NC(=O)[C@H](CC(=O)O)NC2=O (stereo partly shown) [I-424]; 1.968
CC[C@@H](C)[C@@H](NC(=O)[C@H](CCC(N)=O)NC(=O)[C@H](Cc1csc2ccccc12)NC(=O)[C@H](Cc1ccccc1)NC(=O)[C@]1(C)CCCCCCC=CCCCC2(CCCC=CC[C@]3(CCCN3C(C)=O)C(=O)N[C@@H](CC(=O)O)C(=O)N[C@@H](CC(C)C)C(=O)N2)C(=O)N[C@@H](CC(=O)O)C(=O)N[C@@H](CCC(=O)O)C(=O)N[C@@H](C)C(=O)N[C@@H](C)C(=O)N[C@@H](Cc2ccccc2)C(=O)N[C@@H](CC(N)=O)C(=O)N1)C(N)=O (stereo partly shown) [I-735]; 2.738
COc1ccccc1C[C@H](NC(=O)[C@]1(C)CCCCCCC=CCCCC2(CCCC=CC[C@]3(CCCN3C(C)=O)C(=O)N[C@@H](CC(=O)O)C(=O)N[C@@H](C)C(=O)N2)C(=O)N[C@@H](CC(=O)O)C(=O)N[C@@H](CCC(=O)O)C(=O)N[C@@H](C)C(=O)N[C@@H](C)C(=O)N[C@@H](Cc2ccccc2)C(=O)N[C@@H](CC(N)=O)C(=O)N1)C(=O)N[C@@H](Cc1csc2ccccc12)C(=O)N[C@@H](Cc1c[nH]cn1)C(N)=O (stereo partly shown) [I-510]; 2.057
CC(=O)N1CCC[C@]12CC=CCCCC1(CCCC=CCCCCCC[C@@](C)(C(=O)N[C@@H](Cc3ccccc3)C(=O)N[C@@H](Cc3c[nH]c4ccccc34)C(=O)N[C@@H](CCC(N)=O)C(N)=O)NC(=O)[C@H](C(C)C)NC(=O)[C@H](Cc3ccccc3)NC(=O)[C@H](C)NC(=O)[C@H](C)NC(=O)[C@H](CC(N)=O)NC(=O)[C@H](CC(=O)O)NC1=O)NC(=O)[C@H](C)NC(=O)[C@H](CC(=O)O)NC2=O (stereo partly shown) [I-125]; 2.256
CC[C@H](C)[C@@H]1NC(=O)[C@H](CC(=O)O)NC(=O)[C@]2(CC=CCCCC3(CCCC=CCCCCCC[C@@](C)(C(=O)N[C@@H](Cc4ccccc4)C(=O)N[C@@H](Cc4csc5ccccc45)C(=O)N[C@@H](CCC(N)=O)C(N)=O)NC(=O)[C@H](CCC(N)=O)NC(=O)[C@H](Cc4ccccc4)NC(=O)[C@H](C)NC(=O)[C@H](C)NC(=O)[C@H](Cc4ccc(C(=O)O)cc4)NC(=O)[C@H](CC(=O)O)NC3=O)NC1=O)CCCN2C(C)=O (stereo partly shown) [I-607]; 2.416

In: # input molecule: CC[C@@H]1NC(=O)[C@H](CC(=O)O)NC(=O)[C@]2(CC=CCCCC3(CCCC=CCCCCCC[C@@](C)(C(=O)N[C@@H](Cc4ccccc4)C(=O)N[C@@H](Cc4csc5ccccc45)C(=O)N[C@@H](Cc4c[nH]cn4)C(N)=O)NC(=O)[C@H](CC(N)=O)NC(=O)[C@H](Cc4ccccc4)NC(=O)[C@H](C)NC(=O)[C@H](C)NC(=O)[C@H](CC(=O)O)NC(=O)[C@H](CC(=O)O)NC3=O)NC1=O)CCCN2C(C)=O (stereo partly shown) [I-575] ; wanted: its CHI Log D
Out: 2.21

In: # input molecule: CO[C@H](C)[C@@H]1NC(=O)[C@H](CC(=O)O)NC(=O)[C@]2(CC=CCCCC3(CCCC=CCCCCCC[C@@](C)(C(=O)N[C@@H](Cc4ccccc4)C(=O)N[C@@H](Cc4csc5ccccc45)C(=O)N[C@@H](CCC(N)=O)C(N)=O)NC(=O)[C@H](CCC(N)=O)NC(=O)[C@H](Cc4ccccc4)NC(=O)[C@H](C)NC(=O)[C@H](C)NC(=O)[C@H](CCC(=O)O)NC(=O)[C@H](CC(=O)O)NC3=O)NC1=O)CCCN2C(C)=O (stereo partly shown) [I-542] ; wanted: its CHI Log D
Out: 2.135
